So I've got a bunch of compounds here, and I need their composite z-score values.
- experimental-protocol: binders of probe aHhip on microarray, primary screen, stem cell growth factor project, biochemical, small-molecule microarray, fluorescence 635/667 (AID 1087);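 further: score merges spot fluorescence at 667nm with spot signal to noise ratio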
- condition-context: higher = more signal
Just the number, please.

Return value of composite z-score for input C=CCC(OC(C)=O)[C@@H]1[C@@H](N(Cc2cccc3ccccc23)C(=O)c2cccc3ccccc23)c2cc(OCCCO)ccc2N1C(=O)c1ccc(-c2ccccc2)cc1 (some centres undefined) , no commentary. 0.607

Look up and state reported composite z-score for COCCOC(=O)N1C(=O)[C@@]2(c3cc(C#CC4=CCCCC4)ccc31)[C@H](c1ccc(OCCO)cc1)N1[C@H](c3ccccc3)[C@H](c3ccccc3)OC(=O)[C@H]1[C@@H]2C(=O)N1CCN(c2ncccn2)CC1 0.0053

State, in one line, measured composite z-score of C=CCNC(=O)[C@H]1[C@@H]2C(=O)O[C@@H](c3ccccc3)[C@@H](c3ccccc3)N2[C@@H](c2ccc(O)cc2)[C@]12C(=O)N(C(=O)OCCOC)c1ccccc12 -0.541

Let me know recorded composite z-score for COCC1=C2[C@@H](CCc3ccccc3)OB(O)C[C@@H]2[C@@H]2C(=O)C=CC(=O)[C@@H]2C1 , thanks. -0.0708

Answer with reported composite z-score of COc1ccc(CN(C2=CC[C@@]3(C(N)=O)C(=O)C(Cl)=C(Cl)C(=O)[C@@]3(C#N)C2)S(=O)(=O)c2ccc(Br)cc2)cc1 0.0176

Determine from records and report composite z-score for COc1ccc(CCNC(=O)[C@@]2(Sc3ccc(C)cc3)CC(=O)N(C3Cc4ccccc4C3)[C@@H]2c2ccc(CO)cc2)cc1 0.866

Using the record for CN1C(=O)C2C=CC(C(O)C#Cc3ccccc3)N(Nc3ccccc3)C2C1=O (centres undefined) , state its measured composite z-score. -0.0024

Check the records and state composite z-score for C=C(COC)/C(=C/C[C@H](OC(C)=O)c1ccc(OCCO)cc1)c1cc(C(=O)OC)ccc1OC -0.476

Entry [N-]=[N+]=NCc1ccccc1C[C@@]1(C(=O)NCc2ccccc2)N=C(c2ccc(OCCCO)cc2)O[C@@H]1c1ccccc1N=[N+]=[N-] needs its composite z-score filled in; supply it. 0.143

Determine its reported composite z-score: Cc1ccc(S[C@]2(C(=O)NCC(F)(F)F)CC(=O)N(Cc3ccccc3C(F)(F)F)[C@@H]2c2ccc(CO)cc2I)cc1 -0.236

Return value of composite z-score for input C=CCC(OC(C)=O)[C@@H]1[C@@H](N(Cc2cc3ccccc3o2)C(=O)Cc2ccc(F)cc2)c2cc(OCCCO)ccc2N1C(=O)c1ccc2ccccc2c1 (some centres undefined) , no commentary. -0.0994

Supply reported composite z-score belonging to this compound: COc1ccc([Si](C)(C)[C@@H]2[C@@H](CCn3cc([C@H](O)c4ccccc4)nn3)O[C@]3(C(=O)N(Cc4ccc(N5CCC5=O)cc4)c4ccccc43)[C@H]2C)cc1 -0.503

Name the recorded composite z-score of the compound listed here: C=CCC(OC(C)=O)[C@@H]1[C@@H](N(Cc2cc3ccccc3o2)C(=O)c2ccc(-c3ccccc3)cc2)c2cc(OCCCO)ccc2N1C(=O)c1ccc2ccccc2c1 (some centres undefined) -0.214

Look up and state reported composite z-score for Cc1ccc(S[C@]2(C(=O)O)CC(=O)N(Cc3ccccc3Cl)[C@@H]2c2ccc(CO)cc2I)cc1 -0.624

Name the recorded composite z-score of the compound listed here: CCCCC=C[C@@H](NC(=O)c1ccc(-c2ccccc2)cc1)c1ccccc1 0.21

In one line, give reported composite z-score of the entry COc1ccc([Si](C)(C)[C@@H]2[C@@H](CC(=O)N3Cc4ccccc4C[C@H]3CO)O[C@]3(C(=O)N(C)c4ccccc43)[C@H]2C)cc1 . 0.202

Complete the entry with composite z-score for [N-]=[N+]=Nc1ccccc1[C@@H]1OC(c2ccc(OCCCO)cc2)=N[C@]1(Cc1ccccc1)C(=O)NCC(O)CO (some centres undefined) 0.28

Respond only with composite z-score recorded for Cc1cc(C)cc(N2C(=O)CSC2c2cccc([N+](=O)[O-])c2)c1 (centres undefined) -0.0994

For the compound C=C(COC)C(=O)CC[C@@H](OC(=O)c1cccnc1)c1ccc(OCCO)cc1 , give its reported composite z-score. -0.0237

Please supply the value of reported composite z-score for the item OCCCC1=CC(c2ccc(CN3CCCC3)cc2)N(Cc2sc3ccccc3c2Cl)CC1 (centres undefined) 0.535

Give the reported composite z-score for this compound. O=C1OCCC/C=C\[C@H]2OC34C=CCN(CCN5CCOCC5)C(=O)[C@H]3N(CCCCCCO)C(=O)[C@@H]4C12 (some centres undefined) -0.0994

Please give measured composite z-score of the following entry: COC(=O)[C@@]1(Cc2ccccc2)[C@H]2c3cc(C(=O)N(C)C)n(Cc4c(CO)[nH]cc(C)c4=O)c3C[C@H]2CN1C(=O)c1ccccc1 0.0456

Supply reported composite z-score belonging to this compound: COC(=O)[C@@]1(Cc2ccc(F)cc2)[C@H]2c3cc(C(=O)N(C)C)n(CCc4ccc(O)c(OC)c4)c3C[C@H]2CN1C(=O)c1ccccc1 0.372

Given the compound C=CCN1Cc2ccccc2[C@H]2OC(c3ccc(OCCCO)cc3)=N[C@@]2(CC=C)C1=O , write its reported composite z-score. 0.0401

Dear colleague, please send me the reported composite z-score for C=C(/C(=C/C[C@H](OC(C)=O)c1ccccc1OCCO)c1cc(C(=O)OC)ccc1OC)C(C)C when you can. 0.126

Read the entry CC(C)C[C@@H]1NC(=O)[C@@H]2C[C@H](C(=O)NCCCCN(C)C)[C@H](c3cccc(OCCO)c3)N2C1=O and write its reported composite z-score. -0.192

Annotate the compound CCOC(=O)C[C@H]1[C@H](OC(=O)c2ccc(C(=O)c3ccccc3)cc2)[C@@H](NC(=O)Cc2ccc(OC)cc2)c2cc(OCCCO)ccc2N1C(=O)c1ccccc1 with its measured composite z-score. -0.0994

Tell me measured composite z-score for COc1ccc(CCN2C(=O)[C@@]3(Cc4ccccc42)c2ccccc2C(=O)N(Cc2ccccc2OC)[C@H]3c2ccc(CO)cc2)cc1 please. 0.21

Recall and state the measured composite z-score for CCOC(=O)C[C@H]1[C@H](OC(=O)c2ccccc2-c2ccccc2)[C@@H](NC(=O)C2CCCCC2)c2cc(OCCCO)ccc2N1C(=O)Cc1ccc(OC)cc1 . -0.12
